The reader will find reported one-hybrid fitness for binding parS DNA values listed item by item below.
B1: Caulobacter ParB omega fusion; a variant is named by its letters at X, in order, B8GW30 (parent)
chain: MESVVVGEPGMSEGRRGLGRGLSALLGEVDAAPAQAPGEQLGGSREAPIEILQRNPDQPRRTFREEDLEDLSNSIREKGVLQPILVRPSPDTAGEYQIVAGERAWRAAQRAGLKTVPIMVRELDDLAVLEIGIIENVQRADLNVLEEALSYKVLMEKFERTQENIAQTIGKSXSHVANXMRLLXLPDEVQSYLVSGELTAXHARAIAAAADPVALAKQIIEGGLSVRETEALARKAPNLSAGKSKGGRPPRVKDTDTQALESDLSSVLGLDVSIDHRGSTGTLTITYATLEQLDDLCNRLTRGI

Variants of: B1
Procedure Text: one-hybrid fitness for binding parS DNA (scaled: cognate 1, non-cognate 0); higher = stronger binding
Reported Conditions: with parS DNA site
Whole data set: some 81,000 sequences, median “one-hybrid fitness for binding parS DNA” near -0.17, cut for the highest 2% near 0.51. The full list was thinned out, with the highest values kept by preference.

1. RLGP ≤ 0.2
2. RGVS 0.516
3. VPDG ≤ 0.2

Request: Identify the reported one-hybrid fitness for binding parS DNA for the following entry. `RQES`
Response: 0.962
